Ref: ChEMBL document CHEMBL1130278

# testedSystem: UniProtKB P25099
# Sequence (P25099 whole entry): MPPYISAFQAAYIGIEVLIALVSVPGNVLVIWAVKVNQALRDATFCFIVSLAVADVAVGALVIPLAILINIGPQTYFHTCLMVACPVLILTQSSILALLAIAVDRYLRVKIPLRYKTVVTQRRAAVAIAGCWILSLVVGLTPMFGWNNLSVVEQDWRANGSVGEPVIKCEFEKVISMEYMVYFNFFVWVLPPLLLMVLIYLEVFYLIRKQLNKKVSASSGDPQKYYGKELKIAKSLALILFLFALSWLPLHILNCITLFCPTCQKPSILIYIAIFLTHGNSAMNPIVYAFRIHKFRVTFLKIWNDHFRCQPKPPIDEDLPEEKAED
# assayInfo: Ability to inhibit binding of [3H]CHA to adenosine A1 receptor in rat brain cortical membranes.
# Type: cell membranes, Membrane
Listed compounds paired with reported Ki
Expressed in µM, but write only the number.

INSERT INTO assay_data (smiles, testedsystem, readoutlabel, recordedresult) VALUES
  ('C#CCn1c(=O)c2c(nc(/C=C/c3ccsc3)n2C)n(C)c1=O', 'UniProtKB P25099', 'Ki', 0.75),
  ('C#CCn1c(=O)c2c(nc(C3CCCCC3)n2C)n(C)c1=O', 'UniProtKB P25099', 'Ki', 2.8),
  ('C#CCn1c(=O)c2c(nc(/C=C/c3ccco3)n2C)n(C)c1=O', 'UniProtKB P25099', 'Ki', 1.9),
  ('C#CCn1c(=O)c2c(nc(-c3cccs3)n2C)n(C)c1=O', 'UniProtKB P25099', 'Ki', 0.95);

Here's the next entry for you.
# input compound: C#CCn1c(=O)[nH]c2[nH]c(/C=C/c3ccccc3)nc2c1=O ; wanted: its Ki
1.3
